The reported measurements were obtained from PubChem BioAssay (NCI).

# Test system: MDA-MB-468 breast
# procedure_summary: NCI-60 one-dose screen, 48 h (100 = growth as untreated, 0 = no growth, -100 = all killed)
# details: 10 µM unless noted
The panel holds about 83,000 compounds, 20% with a hit somewhere; the sample as a whole holds those more often.
Measured growth values are reported for all entries that follow.
parameter_measured: growth (%)

INSERT INTO measurements (molecule, tested_on, obs_value) VALUES
  ('O=C(Nn1c2c(sc1=NC1CC1)C(=O)c1ccccc1C2=O)c1cc2ccc1CCc1ccc(cc1)CC2', 'MDA-MB-468 breast', 32.4),
  ('CCCN1CCN(c2ccc3nc(-c4ccc5nc(-c6cc(OC)ccc6OC)[nH]c5c4)[nH]c3c2)CC1', 'MDA-MB-468 breast', 114),
  ('Cn1cc(-c2cc(N)n3nc(-c4cn(C)c5ccccc45)cc3n2)c2cc(F)ccc21', 'MDA-MB-468 breast', -36.3),
  ('Cc1cccc(/C=C/c2c(C(=O)/C=C/c3ccccc3)c(C)nc3ccccc23)c1', 'MDA-MB-468 breast', -51.1),
  ('Fc1ccc(-c2ccnc3nc(-c4ccncc4)nn23)cc1', 'MDA-MB-468 breast', 111),
  ('O=c1oc2ccc(I)cc2c(=O)n1-c1ccc(Br)cc1F', 'MDA-MB-468 breast', -2.16),
  ('CCCCCCNC(=O)Nc1ncnc2c1ncn2-c1ccccc1', 'MDA-MB-468 breast', 105),
  ('COc1cc(NC(=O)COc2cc(C)nc3ccc(OC)cc23)cc(OC)c1', 'MDA-MB-468 breast', 76.3),
  ('O=C(N/N=C/c1c(Cl)cccc1Cl)c1cccc(Nc2ccnc(C(F)(F)F)c2)c1', 'MDA-MB-468 breast', 67.6),
  ('O=C(O)c1cn(C2CC2)c2cc(N3CCN(C(=O)N/N=C/c4cccc5ccccc45)CC3)c(F)cc2c1=O', 'MDA-MB-468 breast', 103),
  ('O=S(=O)(NCCNc1cc(-c2c(-c3cccc(O)c3)nc3sccn23)ccn1)c1ccc(C(F)(F)F)cc1', 'MDA-MB-468 breast', 30.7),
  ('C[C@@H]1CC2C3CCC4=CC(=O)C=C[C@]4(C)[C@@]3(Cl)[C@@H](O)C[C@]2(C)[C@@]1(OC(=O)c1ccco1)C(=O)CCl (stereo partly drawn)', 'MDA-MB-468 breast', 104),
  ('O=C(NC(=S)Nc1ccccn1)c1ccccc1', 'MDA-MB-468 breast', 45.1),
  ('O=C1NC(=O)C(CSc2ccccc2)(c2ccccc2)N1 (stereo not drawn)', 'MDA-MB-468 breast', 105),
  ('COc1cc(CCn2nnc3c(Nc4ccc(N5CCOCC5)cc4)ncnc32)cc(OC)c1', 'MDA-MB-468 breast', 80.6),
  ('COc1cc(C=O)ccc1OC1OC(COC(C)=O)C(OC(C)=O)C(OC(C)=O)C1OC(C)=O (stereo not drawn)', 'MDA-MB-468 breast', 100),
  ('COc1ccc(C2=C(c3ccccc3)c3ccc(OC(C)=O)cc3OC2(C)C)cc1', 'MDA-MB-468 breast', 86.2),
  ('CS(=O)(=O)c1ccc(/C(=N/NC(N)=S)c2ccc(F)cc2)cc1', 'MDA-MB-468 breast', 88.2),
  ('Cc1ccc(-n2cc(/C=C/C(=O)c3ccc(O)cc3)c(-c3ccc(S(C)(=O)=O)cc3)n2)cc1', 'MDA-MB-468 breast', 93.8),
  ('O=S(=O)(NCCCNc1nccc(-c2c(-c3ccc(F)c(O)c3)nc3sccn23)n1)c1ccc(Cl)cc1', 'MDA-MB-468 breast', 82.8),
  ('CCCCCCCCCCCC[N+](C)(C)Cc1ccccc1', 'MDA-MB-468 breast', -26.4),
  ('CNCCCn1c2c(c3ccc(Cl)cc3c1=O)C(=O)c1cc(OC)cnc1-2', 'MDA-MB-468 breast', 67.2),
  ('O=C1OCC2=C1C(c1cccc(Cl)c1)c1cc3c(cc1N2CCO)OCCO3 (stereo not drawn)', 'MDA-MB-468 breast', 9.02),
  ('CC(CCCC(=O)O)c1ccoc1 (stereo not drawn)', 'MDA-MB-468 breast', 119),
  ('O=C(CCl)NCCNc1nccc(Nc2ccc(S(=O)(=O)Nc3ccccn3)cc2)n1', 'MDA-MB-468 breast', 21.1),
  ('COc1cc(-c2nn(-c3ccc(NC(=O)NCCCNC(=O)c4ccccc4)cc3)cc2-c2ccncc2)ccc1Cl', 'MDA-MB-468 breast', 9.32),
  ('C=C(C)[C@@H]1CC[C@]2(C)[C@H](CC(=O)N[C@H]3[C@@H]4C[C@](C)(C(=O)OC)CC[C@]4(C)CC[C@]32C)[C@@]1(C)CCC#N', 'MDA-MB-468 breast', 83.3),
  ('COc1cc2cc3c(nc2cc1OC)CCN3Cc1ccc(NC(=O)Nc2cc(C(F)(F)F)cc(C(F)(F)F)c2)cc1', 'MDA-MB-468 breast', 52.9),
  ('Oc1cc2ccccc2c(-c2c(O)c(O)cc3ccccc23)c1O', 'MDA-MB-468 breast', 26.6),
  ('CCCCn1cnc(-c2cc(-c3ccccc3)cc(C(F)(F)F)c2)n1', 'MDA-MB-468 breast', 99),
  ('CNC(C)=O', 'MDA-MB-468 breast', 102),
  ('COc1ccc(/C=C/C(=O)c2cc3c(N)c(C(=O)Nc4ccccc4)sc3nc2C)cc1', 'MDA-MB-468 breast', 15.3),
  ('CCOC(=O)C1=C(C)Nc2nnc(Nc3ccccc3)n2C1c1ccccc1 (stereo not drawn)', 'MDA-MB-468 breast', 68.4),
  ('CCOC(=O)c1ccc2c(c1)nc(/C=C/c1ccc(Cl)cc1)n2-c1cc(C(C)(C)C)[nH]n1', 'MDA-MB-468 breast', 58.8),
  ('C=C(C)[C@@H]1CC[C@]2(C(=O)O)CC[C@]3(C)[C@H](CC[C@@H]4[C@@]5(C)C/C(=C/c6ccc(OC)cc6)C(=O)C(C)(C)[C@@H]5CC[C@]43C)[C@@H]12', 'MDA-MB-468 breast', 0.722),
  ('O=C1Nc2ccccc2/C1=N/N=C/c1ccc(OC2OC(CO)C(O)C(O)C2O)cc1 (stereo not drawn)', 'MDA-MB-468 breast', 112),
  ('Fc1ccc(-c2cc3nc(C(Cl)Cl)nc(-c4ccc(F)cc4)n3n2)cc1', 'MDA-MB-468 breast', -63.6),
  ('CC/C(=C(\c1ccc(O)cc1)c1ccc(OCCN(C)CCN(C)C(=O)CCC(=O)c2c(C)[nH]c(/C=C3\N=C(c4ccc[nH]4)C=C3OC)c2C)cc1)c1ccccc1', 'MDA-MB-468 breast', 65.9);
